Molecular target: OAT3 (Homo sapiens, UniProt Q8TCC7)
Sequence (Q8TCC7 1-542): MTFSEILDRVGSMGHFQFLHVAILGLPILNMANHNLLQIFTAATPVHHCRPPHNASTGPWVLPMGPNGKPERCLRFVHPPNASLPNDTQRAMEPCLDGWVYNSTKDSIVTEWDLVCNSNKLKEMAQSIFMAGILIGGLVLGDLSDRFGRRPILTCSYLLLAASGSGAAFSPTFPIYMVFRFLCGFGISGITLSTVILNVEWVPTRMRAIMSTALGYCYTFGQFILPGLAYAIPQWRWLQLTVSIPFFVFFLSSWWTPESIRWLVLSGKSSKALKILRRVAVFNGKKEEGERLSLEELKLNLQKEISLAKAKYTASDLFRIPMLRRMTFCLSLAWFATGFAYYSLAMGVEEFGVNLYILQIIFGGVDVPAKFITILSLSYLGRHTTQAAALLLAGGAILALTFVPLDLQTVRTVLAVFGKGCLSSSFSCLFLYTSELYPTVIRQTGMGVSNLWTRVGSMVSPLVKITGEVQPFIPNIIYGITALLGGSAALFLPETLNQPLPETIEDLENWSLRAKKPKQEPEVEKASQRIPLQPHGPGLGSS

Compound	IC50
CN1CCC(N(Cc2ccc(F)cn2)C(=O)NCc2ccc(OCC(F)(F)F)cc2)CC1 [7–16]	> 100 µM

---

Target: OCT2 (Homo sapiens, UniProt O15244)
Sequence (O15244 1-555): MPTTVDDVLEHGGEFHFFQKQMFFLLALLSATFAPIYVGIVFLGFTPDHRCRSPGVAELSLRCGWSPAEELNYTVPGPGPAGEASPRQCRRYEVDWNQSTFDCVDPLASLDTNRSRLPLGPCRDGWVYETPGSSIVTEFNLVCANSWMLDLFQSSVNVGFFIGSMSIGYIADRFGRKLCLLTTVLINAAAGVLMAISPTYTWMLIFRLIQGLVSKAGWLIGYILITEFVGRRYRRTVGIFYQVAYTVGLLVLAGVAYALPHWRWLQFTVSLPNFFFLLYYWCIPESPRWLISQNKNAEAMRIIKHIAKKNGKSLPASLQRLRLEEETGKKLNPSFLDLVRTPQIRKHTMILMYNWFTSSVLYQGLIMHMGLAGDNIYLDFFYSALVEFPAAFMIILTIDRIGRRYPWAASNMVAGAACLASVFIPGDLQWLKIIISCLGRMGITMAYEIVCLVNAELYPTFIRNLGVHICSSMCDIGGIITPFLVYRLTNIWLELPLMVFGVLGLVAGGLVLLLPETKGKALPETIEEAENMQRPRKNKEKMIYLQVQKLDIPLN

Smiles	IC50 (µM)
CN1CCC(N(Cc2ccc(F)cn2)C(=O)NCc2ccc(OCC(F)(F)F)cc2)CC1	72.5
